Where do these numbers come from? They come from PubChem BioAssay (NCI).

Tested on: HCC-2998 colon
Experiment: NCI-60 one-dose screen, 48 h (100 = growth as untreated, 0 = no growth, -100 = all killed)
Details: 10 µM unless noted
Experimental: Growth inhibition of the HCC-2998 human tumor cell line is measured as a screen for anti-cancer activity. Cells are grown in 96 well plates and exposed to the test compound for 48 hours. Compounds are tested at a single concentration, which is 10^-5 M for most compounds. The reported endpoint is percent growth (GI% or GIPRCNT), where numbers from 0 - 100% represent growth inhibition, and numbers from -100% - 0 represent cell death. For example, a value of 40 represents 60% growth inhibition. […]
Compounds without any hit were thinned out: in the full panel of roughly 83,000, 20% have a hit.
Attribute Measured: growth (%)
# unit: % | format: bare number

Exercise: Hi! What's the reported growth for `Nc1ccc(-c2nnc(SCc3ccc(O)c4ncccc34)n2-c2ccccc2)cc1` on HCC-2998 colon?
Key: 29.1

Exercise: What value of growth on HCC-2998 colon does `COc1cc(/C=N/n2cnc3oc(-c4ccccc4)cc3c2=N)cc(CN2CCCC2)c1O` have?
Key: 98.5

Exercise: Request - read-out growth | tested on HCC-2998 colon | compound `C#C[C@]1(O)CC[C@H]2[C@@H]3CC=C4c5sc(Nc6nc(C)cc(OC)n6)nc5CC[C@]4(C)[C@H]3CC[C@@]21C`
Key: 80.9

Exercise: Look up growth with HCC-2998 colon for this compound: `C=CCn1c(SCC(=O)Nc2cccc(C(=O)/C=C/c3ccccc3Cl)c2)nc2ccccc2c1=O`
Key: 100

Exercise: State its growth on HCC-2998 colon: `Fc1ccc(-c2cc3nc(C(Cl)Cl)nc(-c4cccs4)n3n2)cc1`
Key: -61.5

Exercise: // fetch HCC-2998 colon growth for `COc1c([C@@H](CC(C)C)OC(C)=O)ccc2c1C(=O)OCc1cc(C)cc(O)c1O2`
Key: 35

Exercise: API: value(readout=growth, system=HCC-2998 colon) for record `COc1ccc(Cn2cc3c(c2-c2cc(OC)c(OC)c(OC)c2)CCCc2cnoc2-3)cc1N`
Key: 49

Exercise: Query growth on HCC-2998 colon for `O=S(=O)(Nc1ccc(I)c(Cl)c1)c1ccc(-c2cnc(C3CC3)o2)cc1`
Key: 59.1

Exercise: Item `C=C(C)[C@@H]1CC[C@]2(C(=O)NCCCN(CCC#N)CCC#N)CC[C@]3(C)[C@H](CC[C@@H]4[C@@]5(C)CCC(=O)C(C)(C)[C@@H]5CC[C@]43C)[C@@H]12` with HCC-2998 colon - growth?
Key: 104

Exercise: What value of growth on HCC-2998 colon does `O=c1[nH]c(CCl)nc2c1cnn2-c1ccccc1` have?
Key: 105

Exercise: Under HCC-2998 colon: growth value of `c1ccc(-c2c(-c3ccccc3)[n+](Cc3ccc4ccccc4c3)c(-c3ccccc3)n2Cc2ccc3ccccc3c2)cc1` ?
Key: -90.3

Exercise: Tell me reported growth for `CNC(=O)c1cc(Oc2ccc3nc(NC(=O)c4ccc(CN5CCN(C)CC5)c(C(F)(F)F)c4)sc3c2)ccn1` , tested with HCC-2998 colon.
Key: 70.5

Exercise: Given the entry `CS(=O)(=O)c1ccc2c(c1)c1c(n2C(=O)c2ccc(Cl)cc2)CCCC1` , what growth was observed with HCC-2998 colon?
Key: 59.9

Exercise: Give recorded growth with HCC-2998 colon for the following compound: `Cc1cn(-c2cc(NC(=O)c3cncc(C#Cc4cnc5ccc(O[C@H]6CCOC6)nn45)c3)cc(C(F)(F)F)c2)cn1`
Key: 84.7

Exercise: What growth appears in the records for this compound with HCC-2998 colon? `NS(=O)(=O)c1ccc(Nc2nc(N/N=C/c3ccc([N+](=O)[O-])cc3)nc(Nc3ccccc3)n2)cc1`
Key: 19.6

Exercise: # value lookup — system HCC-2998 colon, readout growth, item `COc1cc(/C=N/n2cnc3oc(-c4ccccc4)cc3c2=N)cc(CN2CCOCC2)c1O`
Key: 101

Exercise: Param readout = growth; param system = HCC-2998 colon; param query = `COc1cc(NC2=C(Cl)C(=O)c3nc(C)ccc3C2=O)cc(OC)c1` ; response: value
Key: 14.4

Exercise: Test system HCC-2998 colon; read-out growth; what value for `COc1ccc(NC(=O)Cn2cc(CN3C(=O)c4ccc([N+](=O)[O-])cc4C3=O)nn2)cc1` ?
Key: 102
